Where these numbers come from: patent US20210230266A1

Target: T1, Human IL-11 (human, UniProt P20809 22-199)
T1 construct: Recombinant human IL-11 (GenScript Cat. No. Z03108-1) or IL-11 secreted by human cells; the mature form is said to have 178 residues; also called recombinant human IL-11; endogenously produced IL-11
T1 sequence: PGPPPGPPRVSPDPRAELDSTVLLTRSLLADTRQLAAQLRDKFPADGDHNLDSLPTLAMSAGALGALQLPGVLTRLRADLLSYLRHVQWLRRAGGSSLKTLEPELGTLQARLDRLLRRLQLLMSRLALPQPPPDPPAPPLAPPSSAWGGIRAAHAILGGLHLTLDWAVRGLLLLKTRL
Assay: SPR (BIAcore T200) single cycle kinetics, human IL-11 on CM5 chip, 1:1 model
Excerpt: HEK293 EBNDA cells were transfected with vectors encoding scFv corresponding to YU100-H01, 01A, 01G, 01I, 01L, 01Q, 01S, 01T, 01V, YU100-G08, 02A, 02G, 02I, 02L, 02Q, 02S, 02T or 02V.
Known koff of a selection of binders
Field format: number, assumed s⁻¹, no unit text.

INSERT INTO results (binder, observed_property, reading) VALUES
  ('02T (antibody, IgG1, V domains shown, C91T variant of the YU100-G08 VL) VH: QVQLVQSGGGVVQPGRSLRLSCAASGFTFSSYGMHWVRQAPGKGLEWVAVISYDGSNKYYADSVKGRFTISRDNSKNTLYLQMNSLRAEDTAVYYCAKIGATDPLDYWGQGTLVTVSS VL: QSALTQPRSVSGSPGQSVTLSCTGTSSDVGGYNYVSWYQHYPGKAPKLMIFDVNERSSGVPDRFSGSKSGNTASLTISGLQAEDEADYYCTSYAGRYTWMFGGGTKVTVLG', 'koff', 0.00207);

Here is the next item to consider.
For the binder shown here, 02G (antibody, IgG1, V domains shown, C91G variant of the YU100-G08 VL) VH: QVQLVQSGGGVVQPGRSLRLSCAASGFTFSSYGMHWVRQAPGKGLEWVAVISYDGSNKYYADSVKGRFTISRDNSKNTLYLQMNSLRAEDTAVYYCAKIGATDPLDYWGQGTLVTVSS VL: QSALTQPRSVSGSPGQSVTLSCTGTSSDVGGYNYVSWYQHYPGKAPKLMIFDVNERSSGVPDRFSGSKSGNTASLTISGLQAEDEADYYCGSYAGRYTWMFGGGTKVTVLG , give the reported koff. 0.0537
